test system: HIV-1 (NL4-3 strain); assay: Assay for inhibition of HIV replication (VIKING) in infected MT4-GFP cells; assay type: cell-based; details: Human immunodeficiency virus 1, NL43, MT4-GFP cells infected with HIV-1 NL4-3; 0% NHS (normal human serum); infected cells at 48 h / 24 h; read-out: VIKING IP50 (nM) with 0% NHS
Task for the reader: assign each of the following compounds its reported IC50.
Answers are plain numbers, in nM.

Please review the following examples before continuing.
- Compound: "CN1CC2(CCOCC2)n2cc(C(=O)NCc3ccc(F)cc3F)c(=O)c(O)c2C1=O [Compound 7]"
  Unit symbol: "nM"
  Reported result: 6
- Compound: "CC(C)OC(=O)OCOP(=O)(CCN1C[C@@]2(CCOC2)n2cc(C(=O)NCc3ccc(F)cc3F)c(=O)c(O)c2C1=O)OCOC(=O)OC(C)C (single isomer, unassigned) [Compound 54]"
  Unit symbol: "nM"
  Reported result: 5

// each listed compound needs a value for IC50
1. CCOCCN1CC2(CCOC2)n2cc(C(=O)NCc3ccc(F)cc3F)c(=O)c(O)c2C1=O (stereo not shown) [Compound 22]
2. CCN1CC2(COC2)n2cc(C(=O)NCc3ccc(F)cc3F)c(=O)c(O)c2C1=O [Compound 5]
3. CC(C)OC(=O)OCOP(=O)(CCN1C[C@]2(CCOC2)n2cc(C(=O)NCc3ccc(F)cc3F)c(=O)c(O)c2C1=O)OCOC(=O)OC(C)C (single isomer, unassigned) [Compound 58]
4. COC1N(N(C)C)C(=O)c2c(O)c(=O)c(C(=O)NCc3ccc(F)cc3F)cn2C12COC2 (stereo not shown) [Compound 38]
5. COCCN1CC2(CCOC2)n2cc(-c3nnc(Cc4ccc(F)cc4F)s3)c(=O)c(O)c2C1=O (stereo not shown) [Compound 39]
6. CCN1CC2(CCOC2)n2cc(C(=O)NCc3ccc(F)cc3F)c(=O)c(O)c2C1=O (stereo not shown) [Compound 16]
7. COCCN1CC2(CCCOC2)n2cc(C(=O)NCc3ccc(F)cc3F)c(=O)c(O)c2C1=O (single isomer, unassigned) [Compound 8]
8. O=C(NCc1ccc(F)cc1F)c1cn2c(c(O)c1=O)C(=O)N(CCP(=O)(O)O)CC21CCOC1 (stereo not shown) [Compound 32]

Solution:
[2, 4, 7, 7, 2, 2, 2, 293]

====

tested on: HIV-1 (NL4-3 strain); test: Assay for inhibition of HIV replication (VIKING) in infected MT4-GFP cells; assay type: cell-based; details: Human immunodeficiency virus 1, NL43, MT4-GFP cells infected with HIV-1 NL4-3; 0% NHS (normal human serum); infected cells at 48 h / 24 h; read-out: VIKING IP50 (nM) with 0% NHS
I'd appreciate it if you marked entries MET when IC50 is lower than 3 nM and NOT MET when it is not.

- Compound: "CN1CCC2(C1)CN(C)C(=O)c1c(O)c(=O)c(C(=O)NCc3ccc(F)cc3F)cn12 (single isomer, unassigned) [Compound 49]"
  Cat: "MET"
- Compound: "CN1CC2(CCN(S(C)(=O)=O)C2)n2cc(C(=O)NCc3ccc(F)cc3F)c(=O)c(O)c2C1=O (single isomer, unassigned) [Compound 47]"
  Cat: "NOT MET"

Problem: Given the entry CN(C)N1CC2(CCOCC2)n2cc(C(=O)NCc3ccc(F)cc3F)c(=O)c(O)c2C1=O [Compound 2] , would its reported IC50 be below 3 nM?
Solution: NOT MET

Problem: Given the entry COCCN1CC2(CCOC2)n2cc(C(=O)NCc3cccc(Cl)c3F)c(=O)c(O)c2C1=O (stereo not drawn) [Compound 29] , would its reported IC50 be below 3 nM?
Solution: MET
